- TESTED_TARGET: T1, human IL-15Rα (human, UniProt Q13261 31-205, limits assumed)
- T1 construct: also called hIL-15Rα; IL-15 receptor alpha
- T1 sequence (Q13261 31-205 limits assumed): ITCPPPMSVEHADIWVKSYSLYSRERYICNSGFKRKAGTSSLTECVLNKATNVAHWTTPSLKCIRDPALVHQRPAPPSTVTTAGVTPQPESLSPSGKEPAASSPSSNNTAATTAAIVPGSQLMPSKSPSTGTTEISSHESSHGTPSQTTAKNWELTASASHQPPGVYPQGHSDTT
- ASSAY_NAME: SPR, steady state
pKd: −log10 of the molar value.
OBSERVABLE: pKd

BINDER: hIL-15 V49R/K10N (ligand) NWVNVISDLNKIEDLIQSMHIDATLYTESDVHPSCKVTAMKCFLLELQRISLESGDASIHDTVENLIILANNSLSSNGNVTESGCKECEELEEKNIKEFLQSFVHIVQMFINTGGGGSGHHHHHHHHGGGLNDIFEAQKIEWHE
pKd: 6.89

BINDER: hIL-15 V49R/N4D (ligand) NWVDVISDLKKIEDLIQSMHIDATLYTESDVHPSCKVTAMKCFLLELQRISLESGDASIHDTVENLIILANNSLSSNGNVTESGCKECEELEEKNIKEFLQSFVHIVQMFINTGGGGSGHHHHHHHHGGGLNDIFEAQKIEWHE
pKd: 6.99

BINDER: hIL-15 V49R/E64A (ligand) NWVNVISDLKKIEDLIQSMHIDATLYTESDVHPSCKVTAMKCFLLELQRISLESGDASIHDTVANLIILANNSLSSNGNVTESGCKECEELEEKNIKEFLQSFVHIVQMFINTGGGGSGHHHHHHHHGGGLNDIFEAQKIEWHE
pKd: 6.89

BINDER: hIL-15 V49R/K11H (ligand) NWVNVISDLKHIEDLIQSMHIDATLYTESDVHPSCKVTAMKCFLLELQRISLESGDASIHDTVENLIILANNSLSSNGNVTESGCKECEELEEKNIKEFLQSFVHIVQMFINTGGGGSGHHHHHHHHGGGLNDIFEAQKIEWHE
pKd: 6.83

BINDER: hIL-15 V49R/I68N (ligand) NWVNVISDLKKIEDLIQSMHIDATLYTESDVHPSCKVTAMKCFLLELQRISLESGDASIHDTVENLINLANNSLSSNGNVTESGCKECEELEEKNIKEFLQSFVHIVQMFINTGGGGSGHHHHHHHHGGGLNDIFEAQKIEWHE
pKd: 7.07

BINDER: hIL-15 V49R/N72D (ligand) NWVNVISDLKKIEDLIQSMHIDATLYTESDVHPSCKVTAMKCFLLELQRISLESGDASIHDTVENLIILANDSLSSNGNVTESGCKECEELEEKNIKEFLQSFVHIVQMFINTGGGGSGHHHHHHHHGGGLNDIFEAQKIEWHE
pKd: 6.98

BINDER: hIL-15 V49R/N4L (ligand) NWVLVISDLKKIEDLIQSMHIDATLYTESDVHPSCKVTAMKCFLLELQRISLESGDASIHDTVENLIILANNSLSSNGNVTESGCKECEELEEKNIKEFLQSFVHIVQMFINTGGGGSGHHHHHHHHGGGLNDIFEAQKIEWHE
pKd: 7.01
